Value source: patent US8796466B2

system: HCV 1b genotype; test: HCV Replicon assay (HCV 1b genotype); format: cell-based, Hepatitis C virus; conditions: Hepatitis C virus; HCV 1b genotype replicon; class symbol; read-out: Range (EC50 values against HCV 1b)
pEC50: −log10 of the molar value.
Measurement Label: pEC50

| Smiles Notation | Value Observed |
| --- | --- |
| COC(=O)N[C@H](C(=O)N1[C@@H]2C[C@@H]2C[C@H]1c1ncc(-c2ccc(/C=C/c3ccc(-c4cnc([C@@H]5C[C@H]6C[C@H]6N5C(=O)[C@@H](NC(=O)OC)C(C)C)[nH]4)cc3)cc2)[nH]1)C(C)C | 10.00 to 11.70 |
| COC(=O)N[C@H](C(=O)N1C[C@@H](C)C[C@H]1c1ncc(-c2ccc([C@H]3C[C@@H]3c3ccc(-c4cnc([C@@H]5C[C@H](C)CN5C(=O)[C@@H](NC(=O)OC)C5CCOCC5)[nH]4)cc3)cc2)[nH]1)C1CCOCC1 | 10.00 to 11.70 |
| CN(C)[C@@H](C(=O)N1CCC[C@H]1c1ncc(-c2ccc(Oc3ccc(-c4cnc([C@@H]5CCCN5C(=O)[C@@H](c5ccccc5)N(C)C)[nH]4)cc3)cc2)[nH]1)c1ccccc1 | 8.00 to 9.00 |
| CN(C)[C@@H](C(=O)N1CCC[C@H]1c1ncc(-c2ccc(COCc3cccc(-c4cnc([C@@H]5CCCN5C(=O)[C@@H](c5ccccc5)N(C)C)[nH]4)c3)cc2)[nH]1)c1ccccc1 | 9.00 to 10.00 |
| O=C(NC1CCCC1)N[C@@H](C(=O)N1CCC[C@H]1c1nc(-c2ccc(COCc3cccc(-c4c[nH]c([C@@H]5CCCN5C(=O)[C@H](NC(=O)NC5CCCC5)c5ccccc5)n4)c3)cc2)c[nH]1)c1ccccc1 | 10.00 to 11.70 |
| COC(=O)N[C@H](C(=O)N1[C@H]2C[C@@]2(C)C[C@H]1c1ncc(-c2ccc(C#Cc3ccc(-c4cnc([C@@H]5C[C@]6(C)C[C@@H]6N5C(=O)[C@@H](NC(=O)OC)C(C)C)[nH]4)cc3)cc2)[nH]1)C(C)C | 10.00 to 11.70 |
| CN(C)[C@@H](C(=O)N1CCC[C@H]1c1nc(-c2ccc(-c3ccc(-c4ccc(-c5c[nH]c([C@@H]6CCCN6C(=O)[C@@H](c6ccccc6)N(C)C)n5)cc4)cc3)cc2)c[nH]1)c1ccccc1 | 9.00 to 10.00 |
| COC(=O)N[C@H](C(=O)N1CCC[C@H]1c1ncc(-c2ccc(C#Cc3ccc4c(c3)CCc3nc([C@@H]5CCCN5C(=O)[C@@H](NC(=O)OC)C(C)C)[nH]c3-4)cc2)[nH]1)C(C)C | 10.00 to 11.70 |
| COC(=O)N[C@H](C(=O)N1[C@@H]2C[C@@H]2C[C@H]1c1ncc(-c2ccc([C@H]3C[C@@H]3c3ccc(-c4cnc([C@@H]5C[C@H]6C[C@H]6N5C(=O)[C@@H](NC(=O)OC)C(C)C)[nH]4)cc3)cc2)[nH]1)C(C)C | 10.00 to 11.70 |
